Sourced from patent US10065990B2

Test system: U937 (human leukemia cells)
Assay: MTT cancer cell growth inhibition
Type: cell-based
Details: Homo sapiens, U-937, 72 h, U937 cells, MTT, 72 hours incubation; read-out: GI50 U93
From the text: MTT assay principle is yellow MTT can penetrate membrane into the cell, succinic dehydrogenase of the mitochondria in living cells can make exogenous MTT reduction of insoluble in water of blue-violet acicular formazan for crystallization and deposition in the cell, crystallization can be dissolved dimethyl sulfoxide (DMSO) solution, detected its absorbance at 490 nm/570 nm wavelength by enzyme-linked immunosorbent assay, which can reflect the number of cells. […] e) 570 nm readings. […]
Please respond with reported GI50 for every item in the list.
Answers are plain numbers, in µM.

Some entries whose results are on file:
C/C=C1\NC(=O)c2nc(ccc2SC)CNC(=O)C[C@@H](/C=C/CCSC(C)=O)OC(=O)[C@H](Cc2cccc3ccccc23)NC1=O = 0.05
C/C=C1\NC(=O)c2cc(SCC)cc(n2)CNC(=O)C[C@@H](/C=C/CCSC(=O)CCCCCC)OC(=O)[C@H](C(C)C)NC1=O = 0.03
C=C1NC(=O)c2ccc(SC)c(n2)CNC(=O)C[C@@H](/C=C/CCSC(C)=O)OC(=O)[C@H](C)NC1=O = 0.06

Would you mind giving GI50 for every molecule in the list below?
1. C/C=C1\NC(=O)c2nc(ccc2SC)CNC(=O)C[C@@H](/C=C/CCSC(C)=O)OC(=O)[C@@H](C)NC1=O
2. C=C1NC(=O)c2ccc(SC)c(n2)CNC(=O)C[C@@H](/C=C/CCSC(C)=O)OC(=O)[C@H](C(C)C)NC1=O
3. C/C=C1\NC(=O)c2ccc(SC)c(n2)CCNC(=O)C[C@@H](/C=C/CCSC(C)=O)OC(=O)[C@H](C(C)C)NC1=O

Result:
[0.08, 0.06, 0.03]
